The values you see were collected from patent US20220048996A1.

Reported SEA assay (PBMC), hIL-2 release EC50, no crosslinker values for a set of binders
Biological target: T1, human OX40 expressed on DO11.10 cells (DO11.10-hOX40) (human, UniProt P43489 29-277)
T1 sequence: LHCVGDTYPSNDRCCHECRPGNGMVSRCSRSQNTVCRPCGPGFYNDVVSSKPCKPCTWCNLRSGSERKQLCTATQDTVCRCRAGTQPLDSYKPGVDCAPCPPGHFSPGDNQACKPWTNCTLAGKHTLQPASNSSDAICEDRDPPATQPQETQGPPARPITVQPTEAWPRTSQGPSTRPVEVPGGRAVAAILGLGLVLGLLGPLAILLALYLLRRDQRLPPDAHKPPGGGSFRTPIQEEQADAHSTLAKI
Test: cell-based or functional assay
Readout Type: SEA assay (PBMC), hIL-2 release EC50, no crosslinker

Binder: FS20-22-49AA/FS30-10-3 (bispecific antibody, human IgG1, kappa, L234A L235A, V domains shown, IgG1 with LALA; also called OX40/CD137 mAb^2) VH: EVQLLESGGGLVQPGGSLRLSCAASGFTFSSYDMSWVRQAPGKGLEWVSDIDPTGSKTDYADSVKGRFTISRDNSKNTLYLQMNSLRAEDTAVYYCARDLNVYGFDYWGQGTLVTVSS VL: EIVLTQSPGTLSLSPGERATLSCRASQSVSSSYLAWYQQKPGQAPRLLIYGASSRATGIPDRFSGSGSGTDFTLTISRLEPEDFAVYYCQQSYSYPVTFGQGTKVEIKR
Meas Value: 290 pM

Binder: FS20-22-49AA/FS30-5-37 (bispecific antibody, human IgG1, kappa, L234A L235A, V domains shown, IgG1 with LALA; also called OX40/CD137 mAb^2) VH: EVQLLESGGGLVQPGGSLRLNCAASGFTFSSYAMSWVRQAPGKGLEWVSAISGSGGSTYYADSVKGRFTISRDNSKNTLYLQMNSLRAEDTAVYYCARSYDKYWGSSIYSGLDYWGQGTLVTVSS VL: EIVLTQSPGTLSLSPGERATLSCRASQSVSSSYLAWYQQKPGQAPRLLIYGASSRATGIPDRFSGSGSGTDFTLTISRLEPEDFAVYYCQQYYSYYPVTFGQGTKVEIKR
Meas Value: 510 pM

Binder: FS20-22-49AA/FS30-10-12 (bispecific antibody, human IgG1, kappa, L234A L235A, V domains shown, IgG1 with LALA; also called OX40/CD137 mAb^2) VH: EVQLLESGGGLVQPGGSLRLSCAASGFTFSSYDMSWVRQAPGKGLEWVSDIDPTGSKTDYADSVKGRFTISRDNSKNTLYLQMNSLRAEDTAVYYCARDLTVYGFDYWGQGTLVTVSS VL: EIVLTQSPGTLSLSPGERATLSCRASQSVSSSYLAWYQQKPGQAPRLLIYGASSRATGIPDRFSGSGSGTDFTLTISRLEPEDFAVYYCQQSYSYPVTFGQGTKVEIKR
Meas Value: 1360 pM

Binder: FS20-22-49AA/FS30-35-14 (bispecific antibody, human IgG1, kappa, L234A L235A, V domains shown, IgG1 with LALA; also called OX40/CD137 mAb^2) VH: EVQLLESGGGLVQPGGSLRLSCAASGFTFSAYNIHWVRQAPGKGLEWVSDISPYGGATNYADSVKGRFTISRDNSKNTLYLQMNSLRAEDTAVYYCARNLYELSAYSYGADYWGQGTLVTVSS VL: EIVLTQSPGTLSLSPGERATLSCRASQSVSSSYLAWYQQKPGQAPRLLIYGASSRATGIPDRFSGSGSGTDFTLTISRLEPEDFAVYYCQQYYYSSPITFGQGTKVEIKR
Meas Value: 90 pM
